# assay-name: Cmax in Beagle dog at 2 mg/kg, po by LC/MS/MS analysis
# Type: ADME, organism-based, Canis lupus familiaris
# Parameters: dose 2 mg/kg, route oral
# measurement-setup: in vivo
Listed next: entries and their corresponding Cmax.

record-smiles	Cmax [nM]
C[C@@H](O)c1nc2cnc3[nH]ccc3c2n1[C@H]1CC[C@H](CC#N)CC1	2500
C[C@@H](O)c1nc2cnc3[nH]ccc3c2n1[C@H]1CC[C@H](CCC#N)CC1	1300
C[C@@H](O)c1nc2cnc3[nH]ccc3c2n1[C@H]1CC[C@@H](NCC(F)(F)F)C1	3000
C[C@@H](O)c1nc2cnc3[nH]ccc3c2n1[C@H]1CC[C@H](NCC(F)(F)F)CC1	2100
C[C@@H](O)c1nc2cnc3[nH]ccc3c2n1[C@H]1CCCOC1	9800

* * *

Please consider the recorded EC50 for Tyrosine-protein kinase JAK1 (Homo sapiens) in what follows.

record-smiles	EC50 [nM]
C[C@@H](O)c1nc2cnc3[nH]ccc3c2n1[C@H]1CC[C@H](C#N)CC1	130
C[C@@H](O)c1nc2cnc3[nH]ccc3c2n1[C@H]1CC[C@H](NCC(F)(F)F)C1	82
C[C@@H](O)c1nc2cnc3[nH]ccc3c2n1[C@@H]1CCC[C@@H](O)C1	140

* * *

# assay-name: Half life in Sprague-Dawley rat at 0.4 mg/kg, iv by LC/MS/MS analysis
# Assay type: ADME, organism-based
# Parameters: dose 0.4 mg/kg, route intravenous
# measurement-setup: in vivo
Listed next: entries and their corresponding half-life.
measured-parameter: half-life (min)

record-smiles	measured-parameter	obs-value
C[C@@H](O)c1nc2cnc3[nH]ccc3c2n1[C@H]1CC[C@H](C#N)CC1	half-life	30
C[C@@H](O)c1nc2cnc3[nH]ccc3c2n1[C@H]1CC[C@H](CCC#N)CC1	half-life	36
C[C@@H](O)c1nc2cnc3[nH]ccc3c2n1[C@H]1CC[C@H](NCC(F)(F)F)CC1	half-life	30

* * *

# assayed-system: Cytochrome P450 3A4 (Homo sapiens, UniProt P08684)
# Sequence (P08684 whole entry): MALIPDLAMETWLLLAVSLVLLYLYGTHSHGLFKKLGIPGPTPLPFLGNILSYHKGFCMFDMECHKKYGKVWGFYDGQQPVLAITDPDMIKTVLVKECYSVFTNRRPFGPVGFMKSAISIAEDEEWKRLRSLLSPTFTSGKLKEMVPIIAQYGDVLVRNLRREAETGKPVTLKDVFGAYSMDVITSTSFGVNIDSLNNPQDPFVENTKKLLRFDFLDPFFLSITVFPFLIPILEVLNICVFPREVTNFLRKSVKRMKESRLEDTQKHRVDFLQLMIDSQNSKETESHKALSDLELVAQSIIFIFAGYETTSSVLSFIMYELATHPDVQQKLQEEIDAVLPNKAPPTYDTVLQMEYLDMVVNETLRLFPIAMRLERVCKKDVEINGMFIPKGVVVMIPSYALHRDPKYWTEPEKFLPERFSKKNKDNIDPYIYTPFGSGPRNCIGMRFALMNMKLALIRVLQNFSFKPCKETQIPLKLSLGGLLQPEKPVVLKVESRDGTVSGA
# assay-name: Reversible inhibition of CYP3A4 in human liver microsomes using midazolam as substrate by LC/MS/MS analysis
# Type: ADME, Microsome
measured-parameter: IC50

record-smiles	obs-value
C[C@@H](O)c1nc2cnc3[nH]ccc3c2n1[C@H]1CCCOC1	> 10 µM
C[C@@H](O)c1nc2cnc3[nH]ccc3c2n1[C@H]1CC[C@H](NCC(F)(F)F)CC1	> 10 µM
C[C@@H](O)c1nc2cnc3[nH]ccc3c2n1[C@H]1CC[C@@H](NCC(F)(F)F)C1	> 10 µM

* * *

# assay-name: Plasma protein binding in cynomolgus monkey
# Type: ADME, cell-free, Macaca fascicularis
# measurement-setup: read-out: PPB (converted)

record-smiles	fraction unbound
C[C@@H](O)c1nc2cnc3[nH]ccc3c2n1[C@H]1CC[C@@H](NCC(F)(F)F)C1	0.44
C[C@@H](O)c1nc2cnc3[nH]ccc3c2n1[C@H]1CC[C@H](C#N)CC1	0.4
C[C@@H](O)c1nc2cnc3[nH]ccc3c2n1[C@H]1CCCOC1	0.46
C[C@@H](O)c1nc2cnc3[nH]ccc3c2n1[C@H]1CC[C@H](CC#N)CC1	0.3

* * *

# assay-name: Hepatic clearance in human hepatocytes after 1 to 4 hrs by LC/MS/MS analysis
# Assay type: ADME, cell-based, Liver, Hepatocyte
# label = true (1) if CLhep predicted < 8 mL/min/kg else false (0)

record-smiles	assigned-label
C[C@@H](O)c1nc2cnc3[nH]ccc3c2n1[C@H]1CC[C@@H](NCC(F)(F)F)CC1	false (0)
C[C@@H](O)c1nc2cnc3[nH]ccc3c2n1C1CCN(CCC#N)CC1	true (1)
CO[C@H]1CC[C@H](n2c([C@@H](C)O)nc3cnc4[nH]ccc4c32)CC1	true (1)
C[C@@H](O)c1nc2cnc3[nH]ccc3c2n1[C@H]1CCCOC1	true (1)
OCc1nc2cnc3[nH]ccc3c2n1C1CCCCC1	false (0)
C[C@@H](O)c1nc2cnc3[nH]ccc3c2n1C1CCN(CC(F)(F)F)CC1	false (0)

Numbers sourced from ChEMBL document CHEMBL2385026.
